- system: Estrogen receptor (Homo sapiens, UniProt P03372)
- Sequence (P03372 whole entry): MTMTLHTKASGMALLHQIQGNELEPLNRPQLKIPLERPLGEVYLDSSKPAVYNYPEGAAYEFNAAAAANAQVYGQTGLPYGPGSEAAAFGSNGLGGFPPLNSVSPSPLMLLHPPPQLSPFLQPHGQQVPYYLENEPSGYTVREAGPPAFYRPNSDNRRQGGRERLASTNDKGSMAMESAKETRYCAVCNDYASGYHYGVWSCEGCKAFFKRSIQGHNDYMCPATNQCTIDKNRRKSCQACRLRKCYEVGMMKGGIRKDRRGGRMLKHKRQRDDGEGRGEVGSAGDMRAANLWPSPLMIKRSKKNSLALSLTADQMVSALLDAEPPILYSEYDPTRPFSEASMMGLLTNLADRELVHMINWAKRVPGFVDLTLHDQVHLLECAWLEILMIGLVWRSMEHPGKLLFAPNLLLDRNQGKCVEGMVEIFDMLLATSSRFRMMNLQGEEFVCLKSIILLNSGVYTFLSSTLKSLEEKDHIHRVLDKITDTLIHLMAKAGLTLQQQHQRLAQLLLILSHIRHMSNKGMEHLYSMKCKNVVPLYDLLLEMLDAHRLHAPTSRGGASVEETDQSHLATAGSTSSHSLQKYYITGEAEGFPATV
Entries annotated with measured Ki
propertyLabel: Ki (nM)

[[record]]
molecule = "CCN(c1ccc(OCCCCCCCCCC(=O)N[C@H](C(=O)N2C[C@H](O)C[C@H]2C(=O)NCc2ccc(-c3scnc3C)cc2)C(C)(C)C)cc1)S(=O)(=O)C1CC2OC1C(c1ccc(O)cc1)=C2c1ccc(O)cc1 (stereo not given in full)"
propertylabel = "Ki"
reading = 3380

[[record]]
molecule = "CCN(c1ccc(OCCCCCC(=O)Nc2cccc3c2C(=O)N(C2CCC(=O)NC2=O)C3=O)cc1)S(=O)(=O)C1CC2OC1C(c1ccc(O)cc1)=C2c1ccc(O)cc1 (stereo not given)"
propertylabel = "Ki"
reading = 970

[[record]]
molecule = "CCN(c1ccc(OCCCCCCC(=O)N[C@H](C(=O)N2C[C@H](O)C[C@H]2C(=O)N[C@@H](C)c2ccc(-c3scnc3C)cc2)C(C)(C)C)cc1)S(=O)(=O)C1CC2OC1C(c1ccc(O)cc1)=C2c1ccc(O)cc1 (stereo not given in full)"
propertylabel = "Ki"
reading = 2030

[[record]]
molecule = "CCN(c1ccc(OCCCCCCC(=O)N[C@H](C(=O)N2C[C@H](O)C[C@H]2C(=O)NCc2ccc(-c3scnc3C)cc2)C(C)(C)C)cc1)S(=O)(=O)C1CC2OC1C(c1ccc(O)cc1)=C2c1ccc(O)cc1 (stereo not given in full)"
propertylabel = "Ki"
reading = 1070

[[record]]
molecule = "CCN(c1ccc(OCCCCCCCCC(=O)N[C@H](C(=O)N2C[C@H](O)C[C@H]2C(=O)NCc2ccc(-c3scnc3C)cc2)C(C)(C)C)cc1)S(=O)(=O)C1CC2OC1C(c1ccc(O)cc1)=C2c1ccc(O)cc1 (stereo not given in full)"
propertylabel = "Ki"
reading = 5080

[[record]]
molecule = "Cc1ncsc1-c1ccc(CNC(=O)[C@@H]2C[C@@H](O)CN2C(=O)[C@@H](NC(=O)CCCCCOc2ccc(N(CC(F)(F)F)S(=O)(=O)C3CC4OC3C(c3ccc(O)cc3)=C4c3ccc(O)cc3)cc2)C(C)(C)C)cc1 (stereo not given in full)"
propertylabel = "Ki"
reading = 2900

[[record]]
molecule = "O=C(COc1ccc(C2CCC(=O)NC2=O)cc1)NCCCCNC(=O)COc1ccc(N(CC(F)(F)F)S(=O)(=O)C2CC3OC2C(c2ccc(O)cc2)=C3c2ccc(O)cc2)cc1 (stereo not given)"
propertylabel = "Ki"
reading = 1270

[[record]]
molecule = "CCN(c1ccc(OCCCCCC(=O)N[C@H](C(=O)N2C[C@@H](O)C[C@H]2C(=O)N[C@@H](C)c2ccc(-c3scnc3C)cc2)C(C)(C)C)cc1)S(=O)(=O)C1CC2OC1C(c1ccc(O)cc1)=C2c1ccc(O)cc1 (stereo not given in full)"
propertylabel = "Ki"
reading = 1560

[[record]]
molecule = "O=C(COc1ccc(C2CCC(=O)NC2=O)cc1)NCCNC(=O)COc1ccc(N(CC(F)(F)F)S(=O)(=O)C2CC3OC2C(c2ccc(O)cc2)=C3c2ccc(O)cc2)cc1 (stereo not given)"
propertylabel = "Ki"
reading = 970

[[record]]
molecule = "CCN(c1ccc(OCCCCCC(=O)N[C@H](C(=O)N2C[C@H](O)C[C@H]2C(=O)N[C@@H](C)c2ccc(-c3scnc3C)cc2)C(C)(C)C)cc1)S(=O)(=O)C1CC2OC1C(c1ccc(O)cc1)=C2c1ccc(O)cc1 (stereo not given in full)"
propertylabel = "Ki"
reading = 2540

